- Tested on: SW-620
- assayProcedure: Cytotoxicity against human SW620 cells
- Type: functional

- compound: "CC(=O)O[C@@H]1C[C@H]2[C@]3(C)CC[C@H]4C(C)(C)CCC[C@]4(C)[C@H]3C[C@H](O)[C@]2(C)[C@@H](C=O)[C@@H]1C(C)=O [SCALARHERBACIN A]"
  GI50 [nM]: 214
- compound: "CC1OC(=O)[C@H]2[C@H]1[C@@H](O)C[C@H]1[C@]3(C)CC[C@H]4C(C)(C)CCC[C@]4(C)[C@H]3C[C@@H](O)[C@]21C (some centres undefined)"
  GI50 [nM]: 12000
- compound: "CC(=O)C1=CC[C@H]2[C@]3(C)CC[C@H]4C(C)(C)CCC[C@]4(C(=O)O)[C@H]3CC(=O)[C@]2(C)[C@H]1C=O"
  GI50 [nM]: 324
- compound: "CC(=O)O[C@H]1C[C@H]2[C@@](C)(CC[C@H]3C(C)(C)CCC[C@@]32CO)[C@@H]2CC=C(C(C)=O)[C@H](C=O)[C@@]12C"
  GI50 [nM]: 162
